Target: Recombinant human protein tyrosine phosphatase 1B (Homo sapiens)
Construct: purchased UBI
Experiment: Protein tyrosine phosphatase 1B inhibitory activity (malachite green, phosphorylated insulin receptor peptide substrate)
Assay type: biochemical
Conditions: recombinant human PTP1B, 60 min room temperature, absorbance 650 nm
propertyLabel: IC50 (µM)

Reference set, count: 2
CN(Cc1ccc([C@H]2CC[C@H](C)CC2)cc1)c1ccc(-c2csc(CN(CC(=O)O)Cc3ccccc3)n2)cc1 : 0.18
CCCC(CCC)c1ccc(OCc2ccc(-c3ccc(CN(CC(=O)O)Cc4nc5ccccc5n4CC(=O)N(CC)CC)s3)cc2)cc1 : 0.1

A = CCCC(CCC)c1ccc(COc2ccc(C)cc2-c2csc(CN3Cc4ccccc4CC3C(=O)O)n2)cc1 (stereo not shown)
B = CCCC(CCC)c1ccc(COc2ccc(-c3csc(CN4CCN(c5ccccc5C(=O)O)CC4)n3)cc2)cc1
Q) Form field 'greater IC50' accepts A or B ; which applies? Please reply using the label of the selected record.
A) B

###

Item-by-item account of melting point

Reference set, count: 3
CCCC(CCC)c1ccc(OCc2ccc(-c3ccc(COc4cncc(C(=O)O)c4)s3)cc2)cc1 : 153 to 155 °C
CCCC(CCC)c1ccc(OCc2ccc(-c3ccc(CN(CC(=O)O)Cc4c[nH]nc4-c4ccccc4)s3)cc2)cc1 : 145.9 to 149.3 °C
O=C(O)c1cccc(C2CCN(Cc3nc(-c4ccc(OCc5ccc(Cl)c(Cl)c5)cc4)cs3)CC2)c1 : 197 to 199 °C

In the following, a different molecule is considered.
Q) // lookup melting point for CC(C)Cc1ccc(CN(C)c2ccc(-c3csc(CN(C)C(Cc4ccccc4)C(=O)O)n3)cc2)cc1 (centres unmarked)
A) 138 to 139 °C

###

propertyLabel: melting point

Reference set, count: 5
CCCC(CCC)c1ccc(COc2ccc(-c3csc(CN4CCN(c5cccc(C(=O)O)c5)CC4)n3)cc2)cc1 : 153 to 154 °C
CCCC(CCC)c1ccc(N(Cc2ccc(-c3ccc(COc4cncc(C(=O)O)c4)s3)cc2)C(C)C)cc1 : 93 to 98 °C
CN(Cc1ccc(-c2csc(N(C)Cc3ccc(C(=O)O)cc3)n2)cc1)c1ccc(C2CCCCC2)cc1 : 190 to 192 °C
CCCC(CCC)c1ccc(OCc2ccc(-c3csc(CN(CC(=O)O)CC(=O)Nc4ccccc4)c3)cc2)cc1 : 155 °C
CCCC(CCC)c1ccc(N(Cc2ccc(-c3csc(COc4cc(C(=O)O)ccc4NC(=O)C(C)C)n3)cc2)C(C)C)cc1 : 166 to 168 °C

Q) // lookup melting point for `CCCC(CCC)c1ccc(N(C)Cc2ccc(-c3csc(CN(CC(=O)O)Cc4ccccc4)n3)cc2)cc1`
A) 138 °C

Q) // lookup melting point for `CN(Cc1ccc(-c2ccccc2)cc1)c1ccc(-c2csc(CN(CC(=O)O)Cc3ccccc3)n2)cc1`
A) 167 to 170 °C

###

Item-by-item account of melting point

Reference set, count: 4
CCCC(CCC)c1ccc(OCc2ccc(-c3csc(CN(CC(=O)O)Cc4cn(C)c5ccccc45)c3)cc2)cc1 [Example 4-86] : 170.5 to 171.9 °C
CCCC(CCC)c1ccc(OCc2ccc(-c3ccc(CN(CC(=O)O)Cc4nc5ccccc5[nH]4)s3)cc2)cc1 [Example 4-8] : 173 to 175 °C
CCC(CC)c1ccc(N(Cc2ccc(-c3csc(COc4ccc(C(=O)O)cc4)n3)cc2)C(C)C)cc1 [Example 1-2] : 219 °C
CCCC(CCC)N(Cc1ccc(-c2csc(COc3cncc(C(=O)O)c3)n2)cc1)c1ccc(C(C)C)cc1 [Example 1-7] : 184 to 185 °C

Q) // lookup melting point for CCCC(CCC)c1ccc(OCc2ccc(-c3csc(CN(CCC(C)C)CC(=O)O)c3)cc2)cc1 [Example 4-71]
A) 176 to 182 °C

Q) // lookup melting point for CCCC(CCC)c1ccc(COc2ccc(C)cc2-c2csc(CN(CC(=O)O)Cc3ccccc3)n2)cc1 [Example 3-9]
A) 126 to 128 °C

Q) // lookup melting point for CCC(CC)c1ccc(N(Cc2ccc(-c3ccc(CN(CC(=O)O)Cc4nc(C(C)(C)C)cs4)s3)cc2)C(C)C)cc1 [Example 4-19]
A) 92 to 98 °C

Q) // lookup melting point for CCCC(CCC)c1ccc(OCc2ccc(-c3csc(COc4cncc(C(=O)O)c4)c3)cc2)cc1.O=S(=O)(O)O [Example 4-48]
A) 151 to 155 °C (dec.)

Q) // lookup melting point for CCC(CC)c1ccc(N(Cc2ccc(-c3csc(CN(C)[C@@H](Cc4ccccc4)C(=O)O)n3)cc2)C(C)C)cc1 [Example 1-22]
A) 80 °C

Q) // lookup melting point for CCCC(CCC)c1ccc(COc2ccc(Cl)cc2-c2csc(CN(CC(=O)O)Cc3ccccc3)n2)cc1 [Example 3-13]
A) 130 to 131 °C

Q) // lookup melting point for CC(C)Cc1ccc(COc2ccc(C(C)(C)C)cc2-c2csc(CN(CC(=O)O)Cc3ccccc3)n2)cc1 [Example 3-12]
A) 155 to 157 °C

Q) // lookup melting point for O=C(O)CN(Cc1ccccc1)Cc1cc(-c2ccc(COc3cc(Cl)cc(Cl)c3)cc2)cs1 [Example 4-105]
A) 202.3 to 204.2 °C

Q) // lookup melting point for CCCC(CCC)c1ccc(Cn2cc(-c3csc(Cn4cc(C(=O)O)c5ccccc54)n3)c3ccccc32)cc1 [Example 1-182]
A) 148 to 152 °C

Q) // lookup melting point for CCCC(CCC)c1ccc(OCc2ccc(-c3csc(COc4cccnc4C(=O)O)n3)cc2)cc1 [Example 1-82]
A) 138.5 °C (dec.)

Q) // lookup melting point for CCCC(CCC)c1ccc(CN(C)C(=O)c2ccc(-c3csc(CN(CC(=O)O)Cc4ccccc4)n3)cc2)cc1 [Example 1-56]
A) 65 to 71 °C

###

Target: Recombinant human protein tyrosine phosphatase 1B (Homo sapiens, UniProt P18031)
Construct: purchased UBI
Assay: Protein tyrosine phosphatase 1B inhibitory activity (malachite green, phosphorylated insulin receptor peptide substrate)
Format: biochemical
Conditions: recombinant human PTP1B, 60 min room temperature, absorbance 650 nm
propertyLabel: IC50 (µM)

Reference set, count: 9
CCCC(CCC)c1ccc(OCc2ccc(-c3csc(CC4CCN(c5ccc(C(=O)O)cc5)CC4)n3)cc2)cc1 : 0.2
CCCC(CCC)c1ccc(COc2ccc(C)cc2-c2csc(CN(CC(=O)O)Cc3ccccc3)n2)cc1 : 0.17
CCCC(CCC)c1ccc(Cn2cc(-c3csc(CN4CCc5ccc(C(=O)O)cc5C4)n3)c3ccccc32)cc1 : 0.31
CCCC(CCC)c1ccc(OCc2cccc(-c3csc(CN4CCc5ccc(C(=O)O)cc5C4)c3)c2)cc1 : 0.19
CCCC(CCC)c1ccc(OCc2ccc(-c3ccc(C(=O)N(CC(=O)O)Cc4ccc(C(C)C)cc4)s3)cc2)cc1 : 0.12
CCCC(CCC)c1ccc(COc2ccc(-c3csc(CN4CCC(c5cccc(C(=O)O)c5)CC4)n3)cc2)cc1 : 0.21
CCCC(CCC)c1ccc(OCc2ccc(-c3ccc(CN(CC(=O)OCC)CC(=O)c4ccc(N5CCCC5)cc4)s3)cc2)cc1.Cl : 0.48
CCCC(CCC)c1ccc(CN(C)c2ccc(-c3csc(CN(CC(=O)O)Cc4ccccn4)n3)cc2)cc1 : 0.28
CCCC(CCC)c1ccc(CN(C)c2ccc(-c3csc(CN(C)[C@@H](Cc4ccccc4)C(=O)O)n3)cc2)cc1 : 0.2

1 = CN(Cc1ccc([C@H]2CC[C@H](C)CC2)cc1)c1ccc(-c2csc(CN3Cc4ccccc4CC3C(=O)O)n2)cc1 (some centres unmarked)
2 = CN(C[C@H]1CC[C@H](c2ccc(Cl)cc2)CC1)c1ccc(-c2csc(CN(CC(=O)O)Cc3ccccc3)n2)cc1
Q) Form field 'greater IC50' accepts 1 or 2 ; which applies? Please reply using the label of the selected record.
A) 2
(2: 0.16 µM, 1: 0.095 µM)

###

Molecular target: Recombinant human protein tyrosine phosphatase 1B (Homo sapiens)
Construct: purchased UBI
Sequence (P18031 1-435): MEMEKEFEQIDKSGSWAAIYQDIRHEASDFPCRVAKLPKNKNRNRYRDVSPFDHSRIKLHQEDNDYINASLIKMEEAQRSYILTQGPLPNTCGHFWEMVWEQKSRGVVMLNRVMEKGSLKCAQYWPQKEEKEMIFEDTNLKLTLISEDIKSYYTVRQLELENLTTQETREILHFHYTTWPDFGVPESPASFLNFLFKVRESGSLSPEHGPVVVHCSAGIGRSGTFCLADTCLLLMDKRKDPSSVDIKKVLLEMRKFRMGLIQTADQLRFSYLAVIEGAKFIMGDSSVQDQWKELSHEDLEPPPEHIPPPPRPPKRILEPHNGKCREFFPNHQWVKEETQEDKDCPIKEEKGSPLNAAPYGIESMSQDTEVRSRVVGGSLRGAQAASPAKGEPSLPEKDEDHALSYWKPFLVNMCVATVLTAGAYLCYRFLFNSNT
Assay: Protein tyrosine phosphatase 1B inhibitory activity (malachite green, phosphorylated insulin receptor peptide substrate)
Format: biochemical
Settings: recombinant human PTP1B, 60 min room temperature, absorbance 650 nm
Protocol: Preparation of Assay Buffer: A 50 mM Tris-HCl buffer (pH 7.5), 50 mM NaCl and 3 mM dithiothreitol (DTT) were prepared. […] The sample (10 μl) prepared as mentioned above and a substrate (25 μl) were successively added to a 96 well plate, and the enzyme (25 μl) prepared as mentioned above was added and mixed. […] An absorbance at 650 nm was measured on a plate reader based on which the protein tyrosine phosphatase 1B inhibitory activity of the test compound was evaluated.
propertyLabel: IC50 (µM)

CCCC(CCC)c1ccc2c(c1)nc(-c1csc(COc3ccc(C(=O)O)cc3)n1)n2Cc1ccc(C(C)C)cc1 [Example 1-158] : 0.29
CCCC(CCC)c1ccc(OCc2ccc(-c3ccc(C(=O)N(CC(=O)O)Cc4nc5ccccc5n4C)s3)cc2)cc1 [Example 4-42] : 0.17
CCCC(CCC)c1ccc(OCc2ccc(-c3ccc(CN(CC(=O)O)Cc4nc5ccccc5o4)s3)cc2)cc1 [Example 4-96] : 0.12
CCCC(CCC)c1ccc(N(C)Cc2ccc(-c3csc(CN(CC(=O)O)Cc4ccccc4)n3)cc2)cc1 [Example 1-25] : 0.13
CCCC(CCC)c1ccc(OCc2ccc(-c3csc(COc4cc(C(=O)O)ccc4NC(=O)C(C)C)c3)cc2)cc1 [Example 4-57] : 0.17
CCCC(CCC)c1ccc(COc2ccc(-c3csc(CN4CCC(c5ccc(C(=O)O)cc5)CC4)n3)cc2)cc1 [Example 1-161] : 0.18
CCCC(CCC)c1ccc(OCc2ccc(-c3ccc(CN(CC(=O)O)Cc4c[nH]nc4-c4ccccc4)s3)cc2)cc1 [Example 4-95] : 0.28
CCC(CC)c1ccc(COc2ccc(-c3csc(CN(CC(=O)O)Cc4ccc(C(C)C)cc4)n3)cc2)cc1 [Example 3-15] : 0.27

1 = CN(Cc1ccc(C2CCCCC2)cc1)c1ccc(-c2csc(CN(CC(=O)O)Cc3ccccc3)n2)cc1 [Example 3-29]
2 = CCCC(CCC)c1ccc(COc2ccc(-c3csc(CN4Cc5ccccc5C[C@H]4C(=O)O)n3)cc2)cc1 [Example 3-26]
3 = CCCC(CCC)c1ccc(OCc2ccc(-c3csc(COc4cncc(C(=O)O)c4)n3)cc2)cc1 [Example 1-48]
4 = CN(Cc1ccc(C2CCC(C)(C)CC2)cc1)c1ccc(-c2csc(CN(CC(=O)O)Cc3ccccc3)n2)cc1 [Example 3-35]
Q) Thanks in advance: please rank these 4 entries by IC50, highest to lowest. Show the ranking through the labels, in the order asked for.
A) 1, 3, 2, 4
